Entry source: the supplement of paper PMC6555819

Test system: RARg:RXRa (NR concentration 270 nM, RXRa partner concentration 90 nM)
experimental protocol: PBM binding z-score (relative to random genomic background probes); higher = stronger binding; sequences stand for … in GC…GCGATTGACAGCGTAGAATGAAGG
observation type: PBM binding z-score

residues | reported measurement
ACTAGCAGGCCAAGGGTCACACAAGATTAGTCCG | 4.6
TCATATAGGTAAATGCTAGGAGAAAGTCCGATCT | 0.278
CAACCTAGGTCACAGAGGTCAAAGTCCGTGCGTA | 7.61
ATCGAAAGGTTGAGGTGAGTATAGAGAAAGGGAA | 1.39
CTCGAAAGGTAGTGCTCAGGTGAGTATACCAAAC | -0.12
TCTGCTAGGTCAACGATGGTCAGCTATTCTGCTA | 3.99
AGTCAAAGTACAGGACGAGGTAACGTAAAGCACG | 0.526
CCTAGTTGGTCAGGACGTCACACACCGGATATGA | 0.464
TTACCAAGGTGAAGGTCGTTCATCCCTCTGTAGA | 1.63
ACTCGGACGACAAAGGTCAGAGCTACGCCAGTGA | 4.65
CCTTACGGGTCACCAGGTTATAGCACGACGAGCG | 5.68
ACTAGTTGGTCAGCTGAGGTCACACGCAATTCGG | 4.1
